Please find below Ki measurements for UniProtKB P47901, combined from several publications.
Sequence (P47901 whole entry): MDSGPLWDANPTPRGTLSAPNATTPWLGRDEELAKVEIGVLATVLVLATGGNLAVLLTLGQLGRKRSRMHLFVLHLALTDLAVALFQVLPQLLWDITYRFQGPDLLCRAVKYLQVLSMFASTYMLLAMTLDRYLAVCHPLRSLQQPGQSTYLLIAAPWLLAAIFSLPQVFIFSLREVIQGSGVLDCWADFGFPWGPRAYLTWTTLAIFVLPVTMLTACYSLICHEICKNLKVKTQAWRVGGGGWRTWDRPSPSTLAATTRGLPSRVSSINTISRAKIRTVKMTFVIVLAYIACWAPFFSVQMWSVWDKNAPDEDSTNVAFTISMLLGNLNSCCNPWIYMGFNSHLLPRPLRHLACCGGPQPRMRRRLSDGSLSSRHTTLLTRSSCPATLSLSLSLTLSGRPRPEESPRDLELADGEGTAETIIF
Assay readout: Ki

[[record]]
molecule = "CCN1CCN(Cc2ccc(OC)c(C3(N4C[C@H](O)C[C@H]4c4ncco4)C(=O)N(S(=O)(=O)c4ccc(OC)cc4)c4ccc(C#N)cc43)c2)CC1 (stereo partly drawn)"
assay_readout = "Ki"
value_measured = "< 10 nM"

[[record]]
molecule = "CCOc1ncccc1C1(NCc2ccc(N3CCN(C)CC3)cc2)C(=O)N(S(=O)(=O)c2ccc(OC)cc2)c2cc(F)c(C#N)cc21 (stereo not drawn)"
assay_readout = "Ki"
value_measured = "< 1 nM"

[[record]]
molecule = "COc1ccc(S(=O)(=O)n2c(=O)n(C(C(=O)N3CCC(N)C3)c3ccccc3)c3cc(Cl)ccc32)cc1 (stereo not drawn)"
assay_readout = "Ki"
value_measured = "100 to 500 nM"

[[record]]
molecule = "COc1ccc(S(=O)(=O)n2c(=O)n(C(C(=O)N3CCN(c4ccncc4)CC3)c3ccccc3OC)c3cc(Cl)ccc32)cc1 (stereo not drawn)"
assay_readout = "Ki"
value_measured = "100 to 500 nM"

[[record]]
molecule = "COc1cc(CN2CCN(C)CC2)ccc1C1(N2CCC[C@H]2c2ncco2)C(=O)N(S(=O)(=O)c2ccc(C#N)cc2)c2ccc(Cl)cc21 (stereo partly drawn)"
assay_readout = "Ki"
value_measured = "< 10 nM"

[[record]]
molecule = "CCCNCc1ccc(OC)c(C2(N3CCCC3c3nccs3)C(=O)N(S(=O)(=O)c3ccc(OC)cc3)c3ccc(Cl)cc32)c1 (stereo not drawn)"
assay_readout = "Ki"
value_measured = "10 to 100 nM"

